Origin of values: patent US20250250230A1

Target: human orexin type 2 receptor (Homo sapiens)
Construct: expressed in transfected cells
Sequence (O43614 1-444): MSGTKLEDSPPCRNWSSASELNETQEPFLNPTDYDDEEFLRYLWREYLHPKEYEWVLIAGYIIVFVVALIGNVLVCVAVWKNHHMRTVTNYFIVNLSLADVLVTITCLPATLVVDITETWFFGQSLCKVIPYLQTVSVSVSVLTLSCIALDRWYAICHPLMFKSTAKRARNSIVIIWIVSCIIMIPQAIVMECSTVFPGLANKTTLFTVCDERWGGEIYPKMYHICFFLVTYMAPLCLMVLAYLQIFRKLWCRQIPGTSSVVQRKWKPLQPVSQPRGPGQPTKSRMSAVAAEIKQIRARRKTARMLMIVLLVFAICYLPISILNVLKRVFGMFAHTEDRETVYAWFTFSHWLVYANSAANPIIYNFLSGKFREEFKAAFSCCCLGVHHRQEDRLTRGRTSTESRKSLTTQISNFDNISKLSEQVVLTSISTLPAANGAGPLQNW
Assay: Measurement of orexin type 2 receptor agonist activity (calcium fluorescence, Fluo-4 AM, FDSS)
Format: cell-based
Conditions: test compound 3 μM; CHO cells expressing human OX2 receptor; DMSO = 0%, orexin A (human) = 100%
// values below are reported OX2R agonist activity (3 μM, %)

{"molecule": "CS(=O)(=O)N[C@@H]1CN(C(=O)C2CC2c2c(-c3c(F)cccc3F)csc2F)CCC1(F)F (stereo partly shown) [Example 378]", "units": "%", "OX2R agonist activity (3 μM, %)": 103}
{"molecule": "CN(C)S(=O)(=O)N[C@H]1CCCN(C(=O)[C@@H]2C[C@H]2c2ccccc2-c2c(F)cccc2F)C1 [Example 302]", "units": "%", "OX2R agonist activity (3 μM, %)": 97}
{"molecule": "C[C@@H]1CN(C(=O)[C@@H]2C[C@@]2(F)c2ccccc2-c2c(F)cccc2F)C[C@@H](CNS(C)(=O)=O)O1 [Example 372]", "units": "%", "OX2R agonist activity (3 μM, %)": 95}
{"molecule": "CS(=O)(=O)NC1CCN(C(=O)C2CC2c2ccc(F)cc2-c2ccccc2Cl)C1 (racemic) [Example 134]", "units": "%", "OX2R agonist activity (3 μM, %)": 74}
